Task for the reader: assign each of the following binders its reported pKd.
# test.system: T1, hFc-mC3d fusion protein (human; mouse, UniProt P01027 1002-1303, limits assumed)
# T1 construct: domain: C3d; not shown: human IgG Fc (hFc), captured by an anti-human IgG CH2 mAb
# T1 sequence (P01027 1002-1303 limits assumed): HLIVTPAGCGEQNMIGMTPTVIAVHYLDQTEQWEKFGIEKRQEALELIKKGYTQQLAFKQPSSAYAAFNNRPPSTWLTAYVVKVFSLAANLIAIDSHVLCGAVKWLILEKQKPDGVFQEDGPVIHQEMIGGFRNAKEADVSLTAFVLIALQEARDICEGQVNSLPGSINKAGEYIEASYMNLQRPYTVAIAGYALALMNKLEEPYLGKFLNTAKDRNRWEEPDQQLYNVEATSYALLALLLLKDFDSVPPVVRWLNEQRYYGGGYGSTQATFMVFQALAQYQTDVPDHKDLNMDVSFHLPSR
# run.description: SPR (Biacore X100), Fab over captured hFc-mC3d
# Protocol: Kinetic and thermodynamic parameters characterizing the binding of purified Fabs to hC3d or mC3d was performed by surface plasmon resonance (SPR) in a Biacore X100 instrument (GE Healthcare). Using mouse anti-human IgG CH2 mAb immobilized on a CM5 sensor chip, hFc-hC3d or hFc-mC3d fusion proteins were captured at a density <400 RU. Each sensor chip included an empty flow cell for instantaneous background subtraction. […]
Give bare numbers, as −log10 of the molar value.

| binder | pKd |
| --- | --- |
| Ab5 Fab (His-tagged rabbit/human chimeric anti-C3d Fab) (Fab, V domains shown, Fab with rabbit Vκ/human Cκ/rabbit VH, His-tagged; also called Ab5 (κ)) VH: QSLEESGGRLVTPGTPLTLTCTVSGFSLSTYTLGWVRQAPGKGLEYIGWIDSSGSAYYASWAKGRFTISKASSTTVDLKMAGLTTEDTATYFCASGNTGGDPLYYGMDPWGPGTLVTVSS VL: DPVLTQTPSSTSAAVGGTVTIKCQASQNIGRWLAWYQQKPGQPPKLLIYRASDLASGVPSRFKGSGSGTQFTLTISGVQREDAATYYCLGSYSSSDSAFGGGTEVVVK | 7.64 |
| Ab3 Fab (His-tagged rabbit/human chimeric anti-C3d Fab) (Fab, V domains shown, Fab with rabbit Vκ/human Cκ/rabbit VH, His-tagged; also called Ab3 (κ)) VH: QKQLVESGGRLVTPGGSLTLTCTISGIDLNTYGMTWVRQAPGKGLEYIGIIVSSGNTYYANWAQGRFTISKTSTTVDLKMTSLTASDTATYFCARGLGRAYSSGYGMDGWGPGTLVTVSS VL: DPVLTQTPSSTSAAVGGTVTIKCQASQNIYTSLAWYQQKPGQPPKLLIYGASNLASGVPSRFKGSRSGTEYTLTISGVEREDAATYYCLGSYTQIDTTFGGGTKLEIK | 7.01 |

Give me pKd for each of these binders, listed below.
1. Ab2 Fab (His-tagged rabbit/human chimeric anti-C3d Fab) (Fab, V domains shown, Fab with rabbit Vκ/human Cκ/rabbit VH, His-tagged; also called Ab2 (κ)) VH: QSVEESGGRLVTPGTPLTLTCTVSGFSLSSYAMTWVRQAPGKGLEWIGVIGTSGMRYYANWAKGRFTISKTSTTVDLKITSPTTEDTATYFCARANFYVGNDESTDAFDPWGPGTLVTVSS VL: ALVMTQTPPSLSASVGETVRIRCLASEDIYNTISWYQQKPGKPPTLLIYGASNLKSGVPPRFSGSGSGTDYTLTIGGVQSEDAATYYCLGGYSYSSTGLTFGAGTKVEIK
2. Ab4 Fab (His-tagged rabbit/human chimeric anti-C3d Fab) (Fab, V domains shown, Fab with rabbit Vκ/human Cκ/rabbit VH, His-tagged; also called Ab4 (κ)) VH: QSLEESGGRLVTPGTPLTLTCTVSGFSLSRYTMAWVRQAPGKGLEYIGWIDSSGSTYYASWAKGRFTISKTSSTTVDLKMTSLTTEDTATYFCASGNDGGDPLYYGMDPWGPGTLVTVSS VL: DGVMTQTPSSTSAAVGGTVTIKCQASQSIRSWLSWYQQKPGQPPKLLIYEASKLASGVPSRFKGSRSGTEYTLAISGVQREDAATYYCLGSIASDDTAFGAGTNVEIK

8.04
6.88
